These entries and their values trace back to patent USRE47193E1.

% Suppression vs. Vehicle for assorted molecules
# target.desc: UniProtKB P58681
# protocol: Short-term in vivo (STIV) assay: oral dosing, R848 s.c., plasma IL-6
# Parameters: female BALB/c mice (Jackson Labs, Bar Harbor, Me.) were dosed by oral gavage; tissue Jackson Labs; host or cells: living female BALB/c mice; plasma IL-6 after s.c. R848
# protocol.conditions: 13 h; 100 mg/kg
readout.kind: % Suppression vs. Vehicle (%)

* CCNC(=O)C1CN(c2ccc(C#N)c3ncccc23)CC(C)O1 (centres unmarked) [ER-894550] | 97
* CC1CN(c2ccc(C#N)c3ncccc23)CC(CN2CCC(NC(=O)c3ccccc3)CC2)O1 (centres unmarked) [ER-888321] | 100
* CC1CN(c2ccc(C#N)c3ncccc23)CC(CN2CCC(NC(=O)C(C)C)CC2)O1 (centres unmarked) [ER-889745] | 99
* C[C@@H]1CN(c2ccc(C#N)c3ncccc23)C[C@H](C(=O)N[C@H]2CNC[C@H]2F)O1.Cl [ER-899742] | 61
* CC1CN(c2ccc(C#N)c3ncccc23)CC(C(=O)NCC2CNCCO2)O1 (centres unmarked) [ER-898694] | 36
* C[C@@H]1CN(c2ccc(C#N)c3ncccc23)C[C@H](C(=O)N(C)[C@H]2CCCNC2)O1 [ER-899619] | 35
* C[C@@H]1CN(c2ccc(C#N)c3ncccc23)C[C@H](CN2CC[C@H](N3CCCC3)C2)O1 [ER-893881] | 19
* CC1CN(c2ccc(C#N)c3ncccc23)CC(C(=O)NC2CCNCC2)O1 (centres unmarked) [ER-898946] | 16
* CCNC(=O)C1CCN(CC2CN(c3ccc(C#N)c4ncccc34)CC(C)O2)CC1 (centres unmarked) [ER-895204] | 43
* CC1CN(c2ccc(C#N)c3ncccc23)CC(CN2CCC(N3CCOCC3)CC2)O1 (centres unmarked) [ER-890093] | 100
* CC1CN(c2ccc(C#N)c3ncccc23)CC(C(=O)NCC2CCCN2)O1 (centres unmarked) [ER-897969] | 54
* C[C@@H]1CN(c2ccc(C#N)c3ncccc23)C[C@H](C(=O)NC2CCN(CC(N)=O)CC2)O1 [ER-899481] | 5
* CC[C@H]1CN(C[C@H]2CN(c3ccc(C#N)c4ncccc34)C[C@@H](C)O2)CCN1 [ER-890963] | 80
* C[C@@H]1CN(c2ccc(C#N)c3ncccc23)C[C@H](C(=O)N[C@@H]2CNC[C@@H]2F)O1.Cl [ER-899745] | 5

====

% Suppression vs. Vehicle for assorted compounds
# target.desc: mouse TLR7 (Mus musculus)
# Sequence (P58681 27-1050): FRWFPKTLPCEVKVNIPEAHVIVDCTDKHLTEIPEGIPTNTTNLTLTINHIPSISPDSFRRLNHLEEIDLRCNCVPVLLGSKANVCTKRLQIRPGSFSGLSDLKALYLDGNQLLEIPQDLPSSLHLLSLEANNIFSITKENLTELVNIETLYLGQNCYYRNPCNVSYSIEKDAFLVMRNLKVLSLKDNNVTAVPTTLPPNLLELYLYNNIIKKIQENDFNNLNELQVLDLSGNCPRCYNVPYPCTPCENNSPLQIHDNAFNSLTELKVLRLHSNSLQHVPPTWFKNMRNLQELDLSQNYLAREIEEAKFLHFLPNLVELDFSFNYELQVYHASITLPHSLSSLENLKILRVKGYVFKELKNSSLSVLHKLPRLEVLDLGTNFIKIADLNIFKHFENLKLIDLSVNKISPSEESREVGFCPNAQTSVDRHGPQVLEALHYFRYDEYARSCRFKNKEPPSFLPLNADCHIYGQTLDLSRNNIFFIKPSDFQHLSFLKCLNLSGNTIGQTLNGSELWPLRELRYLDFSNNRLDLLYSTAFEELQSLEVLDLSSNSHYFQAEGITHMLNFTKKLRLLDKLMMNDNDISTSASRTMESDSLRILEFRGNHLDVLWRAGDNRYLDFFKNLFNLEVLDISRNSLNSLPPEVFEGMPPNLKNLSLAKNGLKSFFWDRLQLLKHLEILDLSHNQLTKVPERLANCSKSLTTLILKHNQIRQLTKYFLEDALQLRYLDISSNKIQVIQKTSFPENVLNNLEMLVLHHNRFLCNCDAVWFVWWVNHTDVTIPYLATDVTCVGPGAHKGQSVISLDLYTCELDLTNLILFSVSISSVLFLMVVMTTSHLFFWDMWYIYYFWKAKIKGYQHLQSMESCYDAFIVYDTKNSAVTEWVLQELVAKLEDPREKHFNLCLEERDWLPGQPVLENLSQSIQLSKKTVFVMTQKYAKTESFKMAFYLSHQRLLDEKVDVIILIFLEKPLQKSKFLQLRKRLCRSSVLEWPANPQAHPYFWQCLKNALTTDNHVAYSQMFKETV
# protocol: Short-term in vivo (STIV) assay: oral dosing, R848 s.c., plasma IL-6
# Design: female BALB/c mice (Jackson Labs, Bar Harbor, Me.) were dosed by oral gavage; tissue Jackson Labs; host or cells: living female BALB/c mice; plasma IL-6 after s.c. R848
# protocol.conditions: 24 h; 33 mg/kg
readout.kind: % Suppression vs. Vehicle (%)

* CC(=O)NC1CCN(CC2CN(c3ccc(C#N)c4ncccc34)CC(C)O2)CC1 (centres unmarked) | 14
* CC1CN(c2ccc(C#N)c3ncccc23)CC(C(=O)NC2CCOCC2)O1 (centres unmarked) | 15
* CCNC(=O)C1CN(c2ccc(C#N)c3ncccc23)CC(C)O1 (centres unmarked) | 48
* CC1CN(c2ccc(C#N)c3ncccc23)CC(C(=O)NC2CCNCC2)O1 (centres unmarked) | 28
* CCNC(=O)C1CCN(CC2CN(c3ccc(C#N)c4ncccc34)CC(C)O2)CC1 (centres unmarked) | 39
* CC1CN(c2ccc(C#N)c3ncccc23)CC(C(=O)NCC2CNCCO2)O1 (centres unmarked) | 0
* CC1CN(c2ccc(C#N)c3ncccc23)CC(C(=O)NCC(C)(C)N(C)C)O1 (centres unmarked) | 0
* C[C@@H]1CN(c2ccc(C#N)c3ncccc23)C[C@H](CN2CCN[C@@H](C)C2)O1 | 25
* CC1CN(c2ccc(C#N)c3ncccc23)CC(CN2CCC(NC(=O)C(C)C)CC2)O1 (centres unmarked) | 0
* CC1CN(c2ccc(C#N)c3ncccc23)CC(C(=O)NCC2CCCN2)O1 (centres unmarked) | 0
* CC1CN(c2ccc(C#N)c3ncccc23)CC(C(=O)NC2CCCNC2)O1 (centres unmarked) | 0
